The origin of these recorded values is paper PMC12198407.

# Test: Pharmacokinetics, intravenous
# Assay type: in vivo, Beagle dogs
# Cond: both sexes, Beagle, dog, plasma, 1 mg/kg

[
  {
    "Test smiles": "CN(Cc1nc2c(N3CCOCC3)nc(-c3ccc(N)cc3)nc2n1C)c1ncc(C(=O)NO)cn1.CS(=O)(=O)O",
    "AUC(0-t) / ng·h/mL": 238
  }
]

###

# Test: Pharmacokinetics, intravenous
# Format: in vivo, Beagle dogs
# Cond: both sexes, Beagle, dog, plasma, 3 mg/kg, read-out: plasma clearance (CL)

[
  {
    "Test smiles": "CN(Cc1nc2c(N3CCOCC3)nc(-c3ccc(N)cc3)nc2n1C)c1ncc(C(=O)NO)cn1.CS(=O)(=O)O",
    "clearance (mL/min/kg)": 71.5
  }
]

###

# Test: Pharmacokinetics, intravenous
# Assay type: in vivo, Beagle dogs
# Cond: both sexes, Beagle, dog, plasma, 3 mg/kg single i.v.

[
  {
    "Test smiles": "CN(Cc1nc2c(N3CCOCC3)nc(-c3ccc(N)cc3)nc2n1C)c1ncc(C(=O)NO)cn1.CS(=O)(=O)O",
    "Units label": "ng/mL",
    "Cmax": 1230
  }
]

###

Let's look at some compounds and their measured pIC50.
# System: NKYS
# Test: Cell viability CCK8
# Assay type: cell-based
# Cond: Homo sapiens, 72 h, no unit in table, read-out: Antiproliferative activity IC50
pIC50: −log10 of the molar value.

[
  {
    "Compound": "Cc1[nH]c2ccccc2c1CCNCc1ccc(/C=C/C(=O)NO)cc1 [panobinostat, reference compound]",
    "pIC50": 8.32
  },
  {
    "Compound": "CN(Cc1nc2c(N3CCOCC3)nc(-c3ccc(N)cc3)nc2n1C)c1ncc(C(=O)NO)cn1.CS(=O)(=O)O",
    "pIC50": 9.11
  }
]

###

Let's look at some molecules and their measured amount in bile, % of administered dose.
# Test: Metabolite profiling in plasma, bile, urine, feces
# Format: in vivo, SD rats
# Cond: males, 0 to 72 hours

[
  {
    "Test smiles": "CC(=O)Nc1ccc(-c2nc(N3CCOCC3)c3nc(CN(C)c4ncc(C(N)=O)cn4)n(C)c3n2)cc1",
    "amount in bile, % of administered dose": "4.75% to 8.74"
  },
  {
    "Test smiles": "CONC(=O)c1cnc(N(C)Cc2nc3c(N4CCOCC4)nc(-c4ccc(NC(C)=O)cc4)nc3n2C)nc1",
    "amount in bile, % of administered dose": "0.97% to 4.38"
  },
  {
    "Test smiles": "CN(Cc1nc2c(N3CCOCC3)nc(-c3ccc(N)cc3)nc2n1C)c1ncc(C(=O)NO)cn1.CS(=O)(=O)O",
    "amount in bile, % of administered dose": "2.47%"
  },
  {
    "Test smiles": "CC(=O)Nc1ccc(-c2nc(N3CCOCC3)c3nc(CN(C)c4ncc(C(=O)O)cn4)n(C)c3n2)cc1",
    "amount in bile, % of administered dose": "0.97% to 4.38"
  },
  {
    "Test smiles": "CN(Cc1nc2c(N3CCOCC3)nc(-c3ccc(N)cc3)nc2n1C)c1ncc(C(N)=O)cn1",
    "amount in bile, % of administered dose": "0.97% to 4.38"
  }
]

###

# Test: Pharmacokinetics, intravenous
# Format: in vivo, SD rats
# Cond: both sexes, SD, rat, plasma, iv; 1 mg/kg single i.v.
Readout kind: C0 (ng/mL)

[
  {
    "Test smiles": "CN(Cc1nc2c(N3CCOCC3)nc(-c3ccc(N)cc3)nc2n1C)c1ncc(C(=O)NO)cn1.CS(=O)(=O)O",
    "Units label": "ng/mL",
    "Value": 736
  }
]

###

# Test: Pharmacokinetics in plasma and tumor, HCT116 tumor-bearing mice
# Type: in vivo, nude mice
# Cond: nude, mouse, tumor, iv, 10 mg/kg, single i.v. 10 mg/kg; read-out: MRT in tumor

[
  {
    "Molecule": "CN(Cc1nc2c(N3CCOCC3)nc(-c3ccc(N)cc3)nc2n1C)c1ncc(C(=O)NO)cn1.CS(=O)(=O)O [PM]",
    "MRT / h": 39.5
  }
]

###

# Test: Pharmacokinetics and tissue distribution in Ighmyc mice
# Format: in vivo
# Cond: Ighmyc (Eμ-myc), mouse, spleen, iv; single i.v. 5 mg/kg; read-out: concentration in spleen at 48 hours

[
  {
    "Compound": "CN(Cc1nc2c(N3CCOCC3)nc(-c3ccc(N)cc3)nc2n1C)c1ncc(C(=O)NO)cn1.CS(=O)(=O)O [PM]",
    "concentration at 48 h (ng/mL)": 134
  }
]

###

# Test: Pharmacokinetics in plasma and tumor, HCT116 tumor-bearing mice
# Type: in vivo, nude mice
# Cond: nude, mouse, tumor and plasma, intravenous, 10 mg/kg; single dose; read-out: tumor AUC0-t / plasma AUC0-t ratio
Readout kind: Kp

[
  {
    "Test smiles": "CN(Cc1nc2c(N3CCOCC3)nc(-c3ccc(N)cc3)nc2n1C)c1ncc(C(=O)NO)cn1.CS(=O)(=O)O",
    "Value": 74.4
  }
]

###

# Test: Metabolite profiling in plasma, bile, urine, feces
# Assay type: in vivo, SD rats
# Cond: males, 0 to 168 hours
Readout kind: amount in feces, % of administered dose (%)

[
  {
    "Compound": "CN(Cc1nc2c(N3CCOCC3)nc(-c3ccc(N)cc3)nc2n1C)c1ncc(C(=O)NO)cn1.CS(=O)(=O)O [PM]",
    "Readout kind": "amount in feces, % of administered dose",
    "Value": 0.94
  },
  {
    "Compound": "CC(=O)Nc1ccc(-c2nc(N3CCOCC3)c3nc(CN(C)c4ncc(C(N)=O)cn4)n(C)c3n2)cc1 [M516]",
    "Readout kind": "amount in feces, % of administered dose",
    "Value": 27.70
  }
]

###

# Test: Pharmacokinetics in plasma and tumor, HCT116 tumor-bearing mice
# Type: in vivo, nude mice
# Cond: nude, mouse, tumor, iv, 10 mg/kg, multiple i.v. 10 mg/kg; read-out: Cmax in tumor
Readout kind: Cmax (ng/mL)

[
  {
    "Molecule": "CN(Cc1nc2c(N3CCOCC3)nc(-c3ccc(N)cc3)nc2n1C)c1ncc(C(=O)NO)cn1.CS(=O)(=O)O [PM]",
    "Value": 283
  }
]

###

Let's look at some compounds and their measured amount in bile, % of administered dose.
# Test: Metabolite profiling in plasma, bile, urine, feces
# Format: in vivo, SD rats
# Cond: females, 0 to 72 hours
Readout kind: amount in bile, % of administered dose

[
  {
    "Compound": "CN(Cc1nc2c(N3CCOCC3)nc(-c3ccc(N)cc3)nc2n1C)c1ncc(C(N)=O)cn1 [M474]",
    "Readout kind": "amount in bile, % of administered dose",
    "Value": "1.16% to 3.30"
  },
  {
    "Compound": "CC(=O)Nc1ccc(-c2nc(N3CCOCC3)c3nc(CN(C)c4ncc(C(N)=O)cn4)n(C)c3n2)cc1 [M516]",
    "Readout kind": "amount in bile, % of administered dose",
    "Value": "5.77% to 7.49"
  },
  {
    "Compound": "CC(=O)Nc1ccc(-c2nc(N3CCOCC3)c3nc(CN(C)c4ncc(C(=O)O)cn4)n(C)c3n2)cc1 [M517]",
    "Readout kind": "amount in bile, % of administered dose",
    "Value": "1.16% to 3.30"
  },
  {
    "Compound": "CN(Cc1nc2c(N3CCOCC3)nc(-c3ccc(N)cc3)nc2n1C)c1ncc(C(=O)NO)cn1.CS(=O)(=O)O [PM]",
    "Readout kind": "amount in bile, % of administered dose",
    "Value": "2.45%"
  },
  {
    "Compound": "CONC(=O)c1cnc(N(C)Cc2nc3c(N4CCOCC4)nc(-c4ccc(NC(C)=O)cc4)nc3n2C)nc1 [M546]",
    "Readout kind": "amount in bile, % of administered dose",
    "Value": "1.16% to 3.30"
  }
]

###

# Study target: UniProt:Q92769
# Sequence (Q92769 whole entry): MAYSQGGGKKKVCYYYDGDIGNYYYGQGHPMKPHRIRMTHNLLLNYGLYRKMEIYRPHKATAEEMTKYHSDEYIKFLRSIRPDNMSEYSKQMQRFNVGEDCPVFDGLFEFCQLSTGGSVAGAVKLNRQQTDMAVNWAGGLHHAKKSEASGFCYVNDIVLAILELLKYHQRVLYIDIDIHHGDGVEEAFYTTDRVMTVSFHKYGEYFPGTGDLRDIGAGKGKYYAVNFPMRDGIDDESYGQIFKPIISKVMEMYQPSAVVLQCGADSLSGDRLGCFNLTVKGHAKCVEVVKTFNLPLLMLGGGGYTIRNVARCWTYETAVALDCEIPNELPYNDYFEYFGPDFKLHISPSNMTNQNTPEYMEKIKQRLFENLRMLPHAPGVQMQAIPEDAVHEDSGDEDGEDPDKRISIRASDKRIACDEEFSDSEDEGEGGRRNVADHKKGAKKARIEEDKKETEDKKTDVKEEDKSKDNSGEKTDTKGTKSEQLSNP
pIC50: −log10 of the molar value.

[
  {
    "Compound": "CN(Cc1nc2c(N3CCOCC3)nc(-c3ccc(N)cc3)nc2n1C)c1ncc(C(=O)NO)cn1.CS(=O)(=O)O [PM]",
    "pIC50": 8.85
  }
]

###

# Test: Metabolite profiling in plasma, bile, urine, feces
# Type: in vivo, SD rats
# Cond: females, 0 to 168 hours
Let's look at some molecules and their measured amount in urine, % of administered dose.

[
  {
    "Test smiles": "CN(Cc1nc2c(N3CCOCC3)nc(-c3ccc(N)cc3)nc2n1C)c1ncc(C(=O)NO)cn1.CS(=O)(=O)O",
    "amount in urine, % of administered dose": "0.35%"
  },
  {
    "Test smiles": "CC(=O)Nc1ccc(-c2nc(N3CCOCC3)c3nc(CN(C)c4ncc(C(=O)NO)cn4)n(C)c3n2)cc1",
    "amount in urine, % of administered dose": "0.43% to 0.87"
  },
  {
    "Test smiles": "CN(Cc1nc2c(N3CCOCC3)nc(-c3ccc(N)cc3)nc2n1C)c1ncc(C(N)=O)cn1",
    "amount in urine, % of administered dose": "0.43% to 0.87"
  },
  {
    "Test smiles": "CC(=O)Nc1ccc(-c2nc(N3CCOCC3)c3nc(CN(C)c4ncc(C(N)=O)cn4)n(C)c3n2)cc1",
    "amount in urine, % of administered dose": "2.35% to 2.49"
  }
]
